- Test system: HOP-62 NSCLC
- experiment: NCI-60 one-dose screen, 48 h (100 = growth as untreated, 0 = no growth, -100 = all killed)
- measurement-conditions: 10 µM unless noted
Compounds without any hit were thinned out: in the full panel of roughly 83,000, 20% have a hit. Active and inactive are the calls of the source. The calls were made as follows: active = growth percent below 10; inactive = the rest.
reported-metric: growth

Asked: Observed growth on HOP-62 NSCLC for CCN(CCO)CCC(=O)c1ccc([N+](=O)[O-])cc1 , please.
Given back: 109% (inactive)

Asked: Observed growth on HOP-62 NSCLC for NNC(=O)c1ccc(C(=O)NN)cc1 , please.
Given back: 115% (inactive)

Asked: Observed growth on HOP-62 NSCLC for Nc1ccc2c(c1)Cc1cc(NC(=O)C(F)(F)F)ccc1-2 , please.
Given back: 105% (inactive)

Asked: Observed growth on HOP-62 NSCLC for Cc1cccc(C[C@H](NC(=O)Nc2ccc(Cl)cc2F)C(=O)N[C@@H]2C(=O)N3C[C@H](O)C[C@H]3C(=O)N3CCN(C)C[C@H]3C(=O)N[C@@H](C)C(=O)N3C[C@H](C)C[C@H]3C(=O)O[C@H]2C)c1 , please.
Given back: 34.3% (inactive)

Asked: Observed growth on HOP-62 NSCLC for Clc1ccccc1/C=N\Nc1ccccn1 , please.
Given back: 83.8% (inactive)

Asked: Observed growth on HOP-62 NSCLC for CC1(C)CC[C@]2(C(N)=O)CC[C@]3(C)C(=CC[C@@H]4[C@@]5(C)C/C(=C/c6cccnc6)C(=O)C(C)(C)[C@@H]5CC[C@]43C)[C@@H]2C1 , please.
Given back: -55.5% [100 µM] (active)

Asked: Observed growth on HOP-62 NSCLC for O=C1NC(=O)C(Cc2ccccc2)(Cc2ccccc2)N1 , please.
Given back: 84.9% (inactive)

Asked: Observed growth on HOP-62 NSCLC for CCOC(=O)c1cc(C#N)n2ncc3ccccc3c12 , please.
Given back: 90.8% (inactive)

Asked: Observed growth on HOP-62 NSCLC for O=c1cc(-c2ccccc2)oc2cc(OCc3cn(Cc4ccc(F)cc4)nn3)cc(O)c12 , please.
Given back: -28.5% [100 µM] (active)

Asked: Observed growth on HOP-62 NSCLC for Cc1nc(Cl)c2c(n1)N(C)c1ccc(Cl)cc1C(C)C2 (stereo unspecified) , please.
Given back: 90.4% (inactive)

Asked: Observed growth on HOP-62 NSCLC for COCCCNc1nc(NC(=O)c2cc(OC)cc(OC)c2)cc(-c2cccnc2)n1 , please.
Given back: 91.3% (inactive)

Asked: Observed growth on HOP-62 NSCLC for COc1cc(-c2nc(SCCC(C)C)nc(Nc3ccccc3)c2C#N)cc(OC)c1OC , please.
Given back: 114% (inactive)

Asked: Observed growth on HOP-62 NSCLC for COc1ccc(N(c2nc(-c3ccc([N+](=O)[O-])cc3)cs2)C(C)C)cc1 , please.
Given back: 84.8% (inactive)

Asked: Observed growth on HOP-62 NSCLC for CCc1ccc(NC(=O)N[C@@H](Cc2cc(F)cc(F)c2)C(=O)N[C@@H]2C(=O)N3C[C@H](O)C[C@H]3C(=O)N3CCOC[C@H]3C(=O)N[C@@H](C)C(=O)N3C[C@H](C)C[C@H]3C(=O)O[C@H]2C)cc1 , please.
Given back: 72.9% (inactive)

Asked: Observed growth on HOP-62 NSCLC for CCCCCCCCCCCCCCNC(=O)Nc1ccc(Cl)c(Cl)c1 , please.
Given back: 56.6% (inactive)

Asked: Observed growth on HOP-62 NSCLC for COc1ccc2nc3c(cc2c1)C(=O)CC(C(F)(F)F)C3 (stereo unspecified) , please.
Given back: 47.7% (inactive)

Asked: Observed growth on HOP-62 NSCLC for C[n+]1c2ccccc2nc2c(N)cc(N)cc21 , please.
Given back: 56.6% (inactive)

Asked: Observed growth on HOP-62 NSCLC for COc1ncc(-c2ccc3nccc(C#CCCCCC(=O)O)c3c2)cc1NS(=O)(=O)c1ccc(F)cc1F , please.
Given back: 29.9% (inactive)

Asked: Observed growth on HOP-62 NSCLC for C=C(C)[C@@H]1CC[C@]2(C(=O)O)CC[C@]3(C)[C@H](CC[C@@H]4[C@@]5(C)C/C(=C/c6ccco6)C(=O)C(C)(C)[C@@H]5CC[C@]43C)[C@@H]12 , please.
Given back: -85.2% [100 µM] (active)

Asked: Observed growth on HOP-62 NSCLC for CCCCCCCCN(CCCCCCCC)CC(O)c1ccc(Cl)c(C)c1Cl (stereo unspecified) , please.
Given back: 89.3% (inactive)

Asked: Observed growth on HOP-62 NSCLC for FC(F)(F)c1ccc2c(c1)Sc1ccccc1N2 , please.
Given back: 97% (inactive)
